targetOrSystem: ActRIIA and ActRIIB (on TGFB/SMAD SBE Reporter HEK293 cells) (human)
Sequence (chain, as listed by the source, chain 1 of 2): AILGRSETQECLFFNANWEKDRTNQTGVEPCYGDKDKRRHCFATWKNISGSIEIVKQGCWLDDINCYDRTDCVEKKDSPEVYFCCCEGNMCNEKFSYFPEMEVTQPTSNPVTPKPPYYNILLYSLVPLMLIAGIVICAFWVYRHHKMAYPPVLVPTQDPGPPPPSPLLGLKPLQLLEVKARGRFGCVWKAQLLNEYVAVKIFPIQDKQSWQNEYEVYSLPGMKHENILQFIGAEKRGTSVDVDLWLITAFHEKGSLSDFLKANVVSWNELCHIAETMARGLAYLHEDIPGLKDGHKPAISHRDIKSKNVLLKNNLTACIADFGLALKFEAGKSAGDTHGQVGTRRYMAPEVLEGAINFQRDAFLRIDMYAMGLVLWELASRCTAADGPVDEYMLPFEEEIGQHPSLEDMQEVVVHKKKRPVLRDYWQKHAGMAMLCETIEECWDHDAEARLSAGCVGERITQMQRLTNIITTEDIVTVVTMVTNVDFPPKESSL
Sequence (chain, as listed by the source, chain 2 of 2): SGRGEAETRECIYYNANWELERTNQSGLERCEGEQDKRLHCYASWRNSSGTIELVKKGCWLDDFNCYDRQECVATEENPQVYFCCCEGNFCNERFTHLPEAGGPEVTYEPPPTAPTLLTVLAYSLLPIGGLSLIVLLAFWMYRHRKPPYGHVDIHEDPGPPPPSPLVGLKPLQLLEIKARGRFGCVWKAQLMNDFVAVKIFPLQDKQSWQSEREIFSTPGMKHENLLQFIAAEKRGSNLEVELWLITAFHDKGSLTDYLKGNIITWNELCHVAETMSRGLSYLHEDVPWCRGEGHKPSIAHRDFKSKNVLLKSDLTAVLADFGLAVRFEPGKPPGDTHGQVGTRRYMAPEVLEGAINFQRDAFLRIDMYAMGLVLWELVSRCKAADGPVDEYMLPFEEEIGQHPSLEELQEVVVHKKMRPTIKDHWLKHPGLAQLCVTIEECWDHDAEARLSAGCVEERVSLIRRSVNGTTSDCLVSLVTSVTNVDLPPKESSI
measure: IC50 (read off the curve); Myostatin-stimulated SMAD reporter gene assay
Express your answer as a number followed by its unit.

{"binder": "Bimagrumab (antibody, V domains shown) VH: QVQLVQSGAEVKKPGASVKVSCKASGYTFTSSYINWVRQAPGQGLEWMGTINPVSGSTSYAQKFQGRVTMTRDTSISTAYMELSRLRSDDTAVYYCARGGWFDYWGQGTLVTVSS VL: QSALTQPASVSGSPGQSITISCTGTSSDVGSYNYVNWYQQHPGKAPKLMIYGVSKRPSGVSNRFSGSKSGNTASLTISGLQAEDEADYYCGTFAGGSYYGVFGGGTKLTVL", "valueReported": "400 pM"}
{"binder": "Antibody Rippla (antibody, V domains shown, full-length IgG; also called Ripp1a) VH: QVQLVQSGAEVRKPGASVKVSCKASGYTFTSSYINWVRQAPGQGLEWMGTINPVSGSTSYAQKFQGRVTMTRDTSISTAYMELSRLRSDDTAVYYCARGGWFDYWGQGTLVTVSS VL: QSALTQPASVSGSPGQSITISCTGTSSDVGSYNRVNWYQQHPGKAPKLMIYGVSKRESGVSNRFSGSKSGNTASLTISGLQAEDEADYYCGTFAGGRYYGVFGGGTKLTVL", "valueReported": "200 pM"}
{"binder": "Antibody Fasnetsküchla (antibody, V domains shown, full-length IgG) VH: QVQLVQSGAEVKKPGASVKVSCKASGYTFTSSYINWVRQAPGQGLEWMGTINAVSGSTSYAQKFQGRVTMTRDTSISTAYMELSRLRSDDTAVYYCARGGWFDYWGQGTLVTVSS VL: QSALTQPASVSGSPGQSITISCTGTSSDVGSANYVNWYQQHPGKAPKPMIYGVSRRPSGVSNRFSGSKSGNTASLTISGLQAEDEADYYCGTFAGGKYYGVFGGGTKLTVL", "valueReported": "700 pM"}

// query Fill in: IC50 (read off the curve); Myostatin-stimulated SMAD reporter gene assay of Antibody Hefaknöpfla (antibody, V domains shown, full-length IgG) VH: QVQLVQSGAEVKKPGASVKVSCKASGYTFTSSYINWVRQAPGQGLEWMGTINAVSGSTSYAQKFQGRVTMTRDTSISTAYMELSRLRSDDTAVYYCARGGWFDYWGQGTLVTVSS VL: QSALTQPASVSGSPGQSITISCTGTSSDVGSKNYVNWYQQHPGKAPKLMIYGVSKRESGVSNRFSGSKSGNTASLTISGLQAEDEADYYCGTFAGGKYYGVFGGGTKLTVL is ___
// result 300 pM
